Sourced from ChEMBL document CHEMBL1152450

The entries below come with measured EC50 values attached.
System: SARS-CoV
Test: Antiviral activity against SARS coronavirus in african green monkey Vero E6 cells assessed as inhibition of replication after 48 hrs
Type: functional, organism-based, Severe acute respiratory syndrome-related coronavirus
Details: Severe acute respiratory syndrome-related coronavirus, Vero, 48 h; read-out: EC50
Enter your answer as a number in µM; do not include the unit.

Cc1ccc(CN)cc1C(=O)N[C@H](C)c1cccc2ccccc12 | 6

(Q) Provide one value: measured EC50 of CNCc1ccc(C)c(C(=O)N[C@H](C)c2cccc3ccccc23)c1
(A) 5.2
